Catalogue of inhibition readings, one per entry.
target_system: Misshapen-like kinase 1 (Homo sapiens) (UniProt Q8N4C8);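 further: mean inhibition value reported, from GSK PKIS kinase profiling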
Sequence (Q8N4C8 whole entry, looked up): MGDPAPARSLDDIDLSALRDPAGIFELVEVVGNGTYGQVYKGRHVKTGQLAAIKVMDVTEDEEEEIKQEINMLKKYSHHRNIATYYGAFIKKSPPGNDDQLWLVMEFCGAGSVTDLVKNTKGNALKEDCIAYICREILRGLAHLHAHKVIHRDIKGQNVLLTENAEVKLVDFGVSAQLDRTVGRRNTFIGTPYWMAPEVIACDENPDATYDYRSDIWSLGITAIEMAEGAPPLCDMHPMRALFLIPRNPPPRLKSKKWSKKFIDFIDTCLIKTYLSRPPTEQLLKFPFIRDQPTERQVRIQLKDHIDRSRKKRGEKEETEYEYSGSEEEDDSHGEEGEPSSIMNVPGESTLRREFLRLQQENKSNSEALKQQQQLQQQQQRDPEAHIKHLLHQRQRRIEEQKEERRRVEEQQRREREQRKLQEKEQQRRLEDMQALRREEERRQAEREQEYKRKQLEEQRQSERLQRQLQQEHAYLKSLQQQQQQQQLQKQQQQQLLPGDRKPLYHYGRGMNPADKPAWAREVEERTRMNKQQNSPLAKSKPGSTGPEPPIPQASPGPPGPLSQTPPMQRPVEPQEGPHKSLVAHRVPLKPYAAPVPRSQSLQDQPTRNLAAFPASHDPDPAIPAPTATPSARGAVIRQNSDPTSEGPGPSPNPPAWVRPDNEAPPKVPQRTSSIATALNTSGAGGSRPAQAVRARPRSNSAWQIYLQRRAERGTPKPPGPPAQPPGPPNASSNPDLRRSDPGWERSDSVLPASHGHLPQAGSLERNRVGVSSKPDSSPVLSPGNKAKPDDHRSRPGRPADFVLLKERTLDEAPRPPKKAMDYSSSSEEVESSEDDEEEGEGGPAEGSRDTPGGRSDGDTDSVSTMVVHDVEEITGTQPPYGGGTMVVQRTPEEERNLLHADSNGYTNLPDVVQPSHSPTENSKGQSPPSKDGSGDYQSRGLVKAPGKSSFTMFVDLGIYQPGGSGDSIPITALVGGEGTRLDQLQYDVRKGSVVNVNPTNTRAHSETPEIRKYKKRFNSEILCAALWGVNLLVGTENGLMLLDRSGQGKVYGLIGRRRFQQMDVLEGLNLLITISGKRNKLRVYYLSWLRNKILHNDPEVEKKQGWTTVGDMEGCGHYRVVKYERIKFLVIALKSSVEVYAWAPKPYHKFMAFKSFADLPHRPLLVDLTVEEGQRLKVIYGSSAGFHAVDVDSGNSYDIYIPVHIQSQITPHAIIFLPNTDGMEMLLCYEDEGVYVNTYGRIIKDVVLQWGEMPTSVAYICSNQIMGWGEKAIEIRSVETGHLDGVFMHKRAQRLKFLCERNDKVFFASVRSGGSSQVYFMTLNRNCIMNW
settings: at 0.1 µM
Reply with just the number (in %).

Record excerpt, results attached:
input_smiles	readout_number
C/C(Nc1ccc(S(N)(=O)=O)cc1)=C1/C(=O)Nc2ccccc21	34.1
NS(=O)(=O)c1ccc(N/N=C2\C(=O)Nc3ccc(C(=O)NCCCn4ccnc4)cc32)cc1	9.83
c1ccc(Oc2ccc(Nc3ncc(-c4ccccc4)o3)cc2)cc1	3.49
CCC(=O)Nc1ccc(C)c(-c2ccc(C(=O)NCC3CC3)cc2)c1	7.03

Name the reported inhibition value associated with the compound "CCN(CC)Cc1ccc(Nc2nccc(-c3cnn4ncccc34)n2)cc1"
5.68

Entry under review: "COc1cccc(/C=N/Nc2ncnc3c2cnn3-c2cccc(OC)c2)c1" . Reported inhibition?
5.65

What value of inhibition has been reported for the following compound? "COc1cc(Nc2ncc3c(C)nc(-c4cccc(C(F)(F)F)c4)n3n2)cc(OC)c1OC"
10.5

Can you look up the measured inhibition of "FC(F)(F)c1cccc(Nc2nccc(-c3cnn4nc(-c5ccccc5)ccc34)n2)c1" for me?
3.38

For the compound "O=C(Nc1n[nH]c2nc(-c3ccc(O)cc3)c(Br)cc12)C1CC1" , what inhibition is on record?
26.4

So what does the record say about inhibition for "CCc1ccc(Oc2nccc(-c3c(-c4ccc(F)cc4)ncn3C3CCNCC3)n2)cc1" ?
4.83

Which inhibition reading was recorded for the compound "Fc1ccc(-c2ncn(C3CCNCC3)c2-c2ccnc(Oc3ccc4c(c3)OCO4)n2)cc1" ?
5.95

What does the record list as inhibition for "Fc1ccc(-c2ncn(CCCN3CCOCC3)c2-c2ccncc2)cc1" ?
1.73

Name the recorded inhibition for "O=C1Nc2ccc(I)cc2C1=Cc1cc(Br)c(O)c(Br)c1" .
18.9

Endpoint output: inhibition of "NC(=O)Cc1ccccc1Oc1nccc(-c2c(-c3ccc(F)cc3)ncn2C2CCNCC2)n1" . Value?
4.37

Reported inhibition, compound "Cc1ccc(C(=O)NC(C)C)cc1-c1ccc(C(=O)NCC2CC2)cc1" : ____
-3.61

# get_value(readout='inhibition', item= "O=C(Nc1n[nH]c2nc(-c3ccco3)ccc12)C1CC1" )
3.07

Field request: inhibition | item: "O=C(Nc1n[nH]c2cc(-c3ccccc3)ccc12)C1CC1"
21.4

Reported inhibition, compound "O=C(NCC1CC1)c1ccc(-c2cccc(C(=O)NC3CC3)c2)cc1" : ____
2.89

Give its inhibition value. Item: "N#Cc1ccc(Oc2nccc(-c3c(-c4ccc(F)cc4)ncn3C3CCNCC3)n2)cc1"
6.9

I have this compound here, "NS(=O)(=O)c1ccc(N/N=C2\C(=O)Nc3ccc(-c4cnco4)cc32)cc1" , and I need its recorded inhibition.
51.6

Would you mind telling me what inhibition value was observed for "O=C(Nc1ccc(Oc2ccc3[nH]c(NC(=O)c4ccccc4)nc3c2)cc1)Nc1cc(C(F)(F)F)ccc1F" ?
3.26
